Tested on: KM12 colon
test-details: NCI-60 one-dose screen, 48 h (100 = growth as untreated, 0 = no growth, -100 = all killed)
assay-context: 10 µM unless noted
About 83,000 compounds went through this panel and 20% of them were active in at least one assay; those are over-represented in the sample as a whole.
Record y whenever growth is at 20% or higher; record n when lower.

Worked examples, 2 molecules total:
INSERT INTO assay_data (chemical_smiles, target_system, assigned_category) VALUES
  ('CCOC(=O)[C@@H](C)C[C@H](Cc1ccccc1)NC(=O)c1csc([C@@H](C[C@H](C(C)C)N(C)C(=O)CNC(=O)[C@H]2CCCCN2C)OC(C)=O)n1', 'KM12 colon', 'n'),
  ('c1cnc2[nH]cc(-c3csc(-c4cn(CCCCN5CCOCC5)c5ccccc45)n3)c2c1', 'KM12 colon', 'y');

[in] # bool: growth of O=C(NCCN1CC1)C(=O)NCCN1CC1 >= 20%
[out] y

###

System: MDA-MB-435 melanoma
test-details: NCI-60 one-dose screen, 48 h
assay-context: 10 µM unless noted
The panel holds about 83,000 compounds, 20% with a hit somewhere; the sample as a whole holds those more often. Activity calls are given as the source filed them. How the source made its calls: active means growth percent below 10; inactive means the rest.
Pick from T = active, F = inactive when you respond.

INSERT INTO assay_data (compound, target_system, assigned_category) VALUES
  ('N#CC1(c2ccccc2)CCN(Cc2ccccc2)CC1', 'MDA-MB-435 melanoma', 'F'),
  ('CC1=C(O)[C@@](C)(CCCCC[C@H](C)CCCCc2ccc(O)cc2)OOC1=O', 'MDA-MB-435 melanoma', 'F'),
  ('O=C(N/N=C\c1ccc(N(CCCl)CCCl)cc1Cl)c1cccnc1', 'MDA-MB-435 melanoma', 'F');

[in] Hi, sorry to bother you, what did the test record for Cn1cc(C2=C(c3cn(C4CCN(Cc5ccccn5)CC4)c4ccccc34)C(=O)NC2=O)c2ccccc21 ?
[out] F

[in] Hi, sorry to bother you, what did the test record for C[C@]12CCc3nc(Nc4ccccc4F)sc3C1=CC[C@@H]1[C@@H]2CC[C@]2(C)C(=O)CC[C@@H]12 ?
[out] F

[in] Hi, sorry to bother you, what did the test record for COC(C(=O)[C@@H](O)[C@@H](C)O)[C@@H]1Cc2cc3cc(O[C@H]4C[C@@H](O[C@H]5C[C@@H](O)[C@H](O)C(C)O5)[C@H](O)C(C)O4)c(C)c(O)c3c(O)c2C(=O)[C@H]1O[C@H]1C[C@@H](O[C@H]2C[C@@H](O[C@H]3C[C@@H](O)[C@@H](O)C(C)O3)[C@@H](O)C(C)O2)[C@H](O)C(C)O1 (some centres undefined) ?
[out] T

[in] Hi, sorry to bother you, what did the test record for COc1ccc(/C=C\c2cc(OC)c(OC)c(OC)c2)c(NS(=O)(=O)c2ccc(C)cc2)c1O ?
[out] T

[in] Hi, sorry to bother you, what did the test record for CC(=O)Oc1ccccc1C(=O)NCCC[Se]C#N ?
[out] T

###

Test system: SNB-19 CNS
test-details: NCI-60 one-dose screen, 48 h (100 = growth as untreated, 0 = no growth, -100 = all killed)
assay-context: 10 µM unless noted
Protocol: Growth inhibition of the SNB-19 human tumor cell line is measured as a screen for anti-cancer activity. Cells are grown in 96 well plates and exposed to the test compound for 48 hours. Compounds are tested at a single concentration, which is 10^-5 M for most compounds. The reported endpoint is percent growth (GI% or GIPRCNT), where numbers from 0 - 100% represent growth inhibition, and numbers from -100% - 0 represent cell death. For example, a value of 40 represents 60% growth inhibition. […]
The panel holds about 83,000 compounds, 20% with a hit somewhere; the sample as a whole holds those more often.
outcome-measure: growth (%)
The answer is to be given in %; state only the numeric part.

These solved cases illustrate the format of a correct answer.
INSERT INTO assay_data (molecule, target_system, unit_name, reported_measurement) VALUES
  ('NC(=O)c1c(Br)n(C2OC(CO)C(O)C2O)c2ncnc(N)c12 (stereo not drawn)', 'SNB-19 CNS', '%', 53.9),
  ('[Au+].[N-]=C=O.c1ccc(CN2[CH-]N(Cc3ccccc3)C(c3ccccc3)=C2c2ccccc2)cc1', 'SNB-19 CNS', '%', 58.7),
  ('COc1ccc(/C=C/c2cc(OC)c(OC)c(OC)c2)cc1NC(=O)/C=C/c1ccc(F)cc1', 'SNB-19 CNS', '%', 33.5);

[in] Give the reported growth for Cc1cnc(/C=C/C(=O)O)cc1-c1cc2c(cc1C)C(C)(C)CCC2(C)C (system: SNB-19 CNS).
[out] 97.4

[in] Give the reported growth for Clc1ccc(COC(Cn2ccnc2)c2ccc(Cl)cc2Cl)cc1 (stereo not drawn) (system: SNB-19 CNS).
[out] 78

[in] Give the reported growth for CC[C@H](C)[C@H](NC(=O)N[C@@H](C)c1ccccc1)C(=O)N(C)[C@H](C[C@@H](OC(C)=O)c1nc(C(=O)N[C@@H](Cc2ccccc2)C[C@H](C)C(=O)OC)cs1)C(C)C (system: SNB-19 CNS).
[out] 56.7

[in] Give the reported growth for C=CC1=C[C@@H]2[C@@H]3O[C@]4(CC[C@H](O4)[C@@H](C)C[C@@H](O)C3=O)C[C@H](O)C3=NCC[C@@]32CC1 (system: SNB-19 CNS).
[out] -16.2

[in] Give the reported growth for CN(C)C(=O)Oc1ccccc1 (system: SNB-19 CNS).
[out] 115

###

Tested on: NCI/ADR-RES ovarian
test-details: NCI-60 one-dose screen, 48 h
assay-context: 10 µM unless noted
The panel holds about 83,000 compounds, 20% with a hit somewhere; the sample as a whole holds those more often. Activity calls are given as the source filed them. The calls were made as follows: active = growth percent below 10; inactive = the rest.
Pick from active, inactive when you respond.

INSERT INTO results (compound, assigned_category) VALUES
  ('c1cnc2[nH]cc(-c3csc(-c4cn(CCCCN5CCCCC5)c5ccccc45)n3)c2c1', 'inactive');

Attention now turns to another entry.
[in] Hi, sorry to bother you, what did the test record for O=C(O)c1ccc([S-])cc1.[Au+].c1ccc(CN2[CH-]N(Cc3ccccc3)C(c3ccccc3)=C2c2ccccc2)cc1 ?
[out] active

###

Tested on: HL-60(TB) leukemia
test-details: NCI-60 one-dose screen, 48 h (100 = growth as untreated, 0 = no growth, -100 = all killed)
assay-context: 10 µM unless noted
Procedure: Growth inhibition of the HL-60(TB) human tumor cell line is measured as a screen for anti-cancer activity. Cells are grown in 96 well plates and exposed to the test compound for 48 hours. Compounds are tested at a single concentration, which is 10^-5 M for most compounds. The reported endpoint is percent growth (GI% or GIPRCNT), where numbers from 0 - 100% represent growth inhibition, and numbers from -100% - 0 represent cell death. For example, a value of 40 represents 60% growth inhibition. […]
About 83,000 compounds went through this panel and 20% of them were active in at least one assay; those are over-represented in the sample as a whole.
// classify(record): look up growth in ranges low: < -20%; middle: ≥ -20% and < 70%; high: ≥ 70%

Worked examples, 5 molecules total:
INSERT INTO assay_data (molecule, assigned_category) VALUES
  ('COc1ccc2c(c1)c(-c1nc(-c3c[nH]c4ncccc34)cs1)cn2CCN1CCOCC1', 'middle'),
  ('O=C1C2CCC1C(N1CCCC1)CC2 (configuration not stated)', 'high'),
  ('CCCCCCCCCCCCCCCCCCOc1ccccc1COP(=O)(O)OOCC[N+](C)(C)C', 'low'),
  ('CN(CCCCN(C)CCOS(C)(=O)=O)CCOS(C)(=O)=O', 'middle'),
  ('Fc1ccc(C2=CCNCC2)cc1', 'high');

[in] Into which category would you place CC(=O)C(c1c(O)c2ccccc2oc1=O)c1cc(=O)oc2c1ccc1ccccc12 (configuration not stated) ?
[out] high

[in] Into which category would you place O=C(CC1(O)C(=O)N(Cc2ccccc2)c2ccc(F)cc21)c1ccc(C(=O)NCC2CCC3(CC2)OOC2(CCCCC2)OO3)cc1 (configuration not stated) ?
[out] low

###

System: MOLT-4 leukemia
test-details: NCI-60 one-dose screen, 48 h
assay-context: 10 µM unless noted
Description: Growth inhibition of the MOLT-4 human tumor cell line is measured as a screen for anti-cancer activity. Cells are grown in 96 well plates and exposed to the test compound for 48 hours. Compounds are tested at a single concentration, which is 10^-5 M for most compounds. The reported endpoint is percent growth (GI% or GIPRCNT), where numbers from 0 - 100% represent growth inhibition, and numbers from -100% - 0 represent cell death. For example, a value of 40 represents 60% growth inhibition. […]
About 83,000 compounds went through this panel and 20% of them were active in at least one assay; those are over-represented in the sample as a whole. Calls of active or inactive are those of the source. The calls were made as follows: active = growth percent below 10; inactive = the rest.
Pick from active, inactive when you respond.

Worked examples, 2 compounds total:
INSERT INTO assay_data (chemical_smiles, target_system, assigned_category) VALUES
  ('COC(=O)[C@@H](C)C[C@H](Cc1ccccc1)NC(=O)c1nc([C@@H](C[C@H](C(C)C)N(C)C(=O)[C@@H](NC(=O)[C@H]2CCCCN2C)C(C)C)OC(C)=O)sc1C(C)C', 'MOLT-4 leukemia', 'active'),
  ('O=[N+]([O-])/C=C\c1ccc(Cl)c(Cl)c1', 'MOLT-4 leukemia', 'inactive');

Attention now turns to another entry.
[in] Hi, sorry to bother you, what did the test record for C=C1C[C@](OC)([C@H](O)C(=O)N[C@@H](OC)[C@@H]2C[C@@H](O)C(C)(C)[C@@H](C[C@@H](COC)OC)O2)O[C@H](C)[C@@H]1C ?
[out] active
